Target: T1, human CD3 (human, UniProt P07766 23-207; P09693 23-182; P04234 22-171)
T1 construct: whole, on cells; also called CD3 on Jurkat T cells; CD3 on primary human T cells
Assay: apparent KD (KDapp), flow cytometry titration on purified primary human T cells
MEASURED METRIC: pKd
Scale note: pKd = -log10(concentration in M).

| BINDER | MEASURED RESULT |
| --- | --- |
| F332-4D6 (antibody, mouse IgG2a, V domains shown, also called F332-4D6-2; F322-4D6) VH: QVQLQQSGAELGKPGTSVKLSCKASGYTFTSYWIHWVKQRPGQGLEWIGNINPNSGSTNYNEKFKRKATLTADKSSSTAYMQLSTLTSEDFAVYYCTRDTSGQYYFDYWGQGTTLTVSS VL: DIVMSQSPSSLAVSAGEKVTMSCKSSQSLLNSRTRKNYLAWYQQKPGQSPKVLIYWASTRESGVPDRFTGSGSGTDFTLTISSVQAEDLAVYYCKQSYHLRTFGGGTKLEIK | 9.28 |

With those in mind, consider the next binder.
Consider the binder F332-7C9 (antibody, mouse IgG2a, V domains shown, also called F332-7C9-2; F332-7C9 (5C7, 7D10)) VH: QVQLQQSGPELVKPGASVRISCKASGYTFTSHYLHWVKQRPGQGFEWIGWIYPGDGNTRYNEKFKDRATLTADKSSSTAYLHLSSLTSEDSAVYFCARDAGYYFDYWGQGTTLAVSS VL: DIVMSQSPSSLAVSAGEKVTMSCKSSQSLLNSRTRKNYLAWYQQKPGQSLKVLIYWASTRESGVPDRFTGSGSGTDFTLTISSVQAEDLAVYYCKQSYSLRTFGGGTKLEIK and give its measured pKd.
9.80
